Biological target: JAK3 (Homo sapiens)
Sequence (P52333 1-1124): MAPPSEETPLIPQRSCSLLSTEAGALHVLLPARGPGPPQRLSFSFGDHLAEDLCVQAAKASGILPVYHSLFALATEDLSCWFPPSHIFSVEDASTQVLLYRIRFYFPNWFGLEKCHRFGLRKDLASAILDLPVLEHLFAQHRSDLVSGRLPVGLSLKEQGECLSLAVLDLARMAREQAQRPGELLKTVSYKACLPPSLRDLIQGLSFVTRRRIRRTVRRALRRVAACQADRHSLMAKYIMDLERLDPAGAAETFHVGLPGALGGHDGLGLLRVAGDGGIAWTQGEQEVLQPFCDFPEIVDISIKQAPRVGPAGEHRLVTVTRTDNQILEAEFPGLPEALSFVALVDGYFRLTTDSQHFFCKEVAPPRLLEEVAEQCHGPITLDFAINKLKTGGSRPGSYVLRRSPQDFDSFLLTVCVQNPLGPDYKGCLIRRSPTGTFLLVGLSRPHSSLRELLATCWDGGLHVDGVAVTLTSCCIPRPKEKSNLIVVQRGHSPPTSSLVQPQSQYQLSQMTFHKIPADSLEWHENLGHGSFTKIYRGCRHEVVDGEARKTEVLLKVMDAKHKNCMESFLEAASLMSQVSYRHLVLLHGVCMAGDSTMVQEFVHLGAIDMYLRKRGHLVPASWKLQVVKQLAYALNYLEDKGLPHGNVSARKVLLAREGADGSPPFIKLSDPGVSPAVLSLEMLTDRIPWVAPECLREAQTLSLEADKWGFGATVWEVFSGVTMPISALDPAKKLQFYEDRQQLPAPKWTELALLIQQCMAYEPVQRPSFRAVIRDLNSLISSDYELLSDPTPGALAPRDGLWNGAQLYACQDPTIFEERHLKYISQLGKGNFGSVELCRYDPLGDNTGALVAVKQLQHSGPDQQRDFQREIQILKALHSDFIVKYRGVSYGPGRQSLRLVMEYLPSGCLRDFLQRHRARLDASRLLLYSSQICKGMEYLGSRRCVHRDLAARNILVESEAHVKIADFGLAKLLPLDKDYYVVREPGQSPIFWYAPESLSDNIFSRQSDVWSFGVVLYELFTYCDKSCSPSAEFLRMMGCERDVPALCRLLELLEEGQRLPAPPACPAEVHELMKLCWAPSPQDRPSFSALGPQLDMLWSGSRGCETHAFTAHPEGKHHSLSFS
Assay: JAK3 inhibition assay (33P incorporation into poly(Glu)4Tyr)
Format: biochemical
Settings: Table 6; enzyme inhibition data (Ki)
pKi: −log10 of the molar value.

{"COMPOUND": "CCNC(=O)c1ccccc1-c1ccnc2[nH]ccc12 [compound 257]", "pKi": "< 5.30"}
{"COMPOUND": "O=S(=O)(C1CC1)N1CC[C@H](Nc2c(Cl)cnc3[nH]ccc23)C1 [compound 179]", "pKi": "> 6.30"}
{"COMPOUND": "CC1CCC(C)N1C(=O)c1cc(-c2c(Cl)cnc3[nH]ccc23)c[nH]1 (stereo not drawn) [compound 359]", "pKi": "> 6.30"}
{"COMPOUND": "C=CCN(CC=C)C(=O)c1csc(-c2ccnc3[nH]ccc23)n1 [compound 401]", "pKi": "> 6.30"}
{"COMPOUND": "N#CCCN(Cc1ccccc1)C(=O)c1cc(-c2c(F)cnc3[nH]ccc23)c[nH]1 [compound 394]", "pKi": "> 6.30"}
{"COMPOUND": "CN(Cc1cccnc1)C(=O)c1cc(-c2c(Cl)cnc3[nH]ccc23)c[nH]1 [compound 354]", "pKi": "> 6.30"}
{"COMPOUND": "CC[C@H](C)NC(=O)c1cc(-c2ccnc3[nH]ccc23)c[nH]1 [compound 290]", "pKi": "5.30 to 6.30"}
{"COMPOUND": "N#CC1CCCN1C(=O)c1cc(-c2ccnc3[nH]ccc23)c[nH]1 (stereo not drawn) [compound 373]", "pKi": "> 6.30"}
{"COMPOUND": "O=C(NC1CC1)c1cc(-c2c(Cl)cnc3[nH]ccc23)c[nH]1 [compound 281]", "pKi": "> 6.30"}
{"COMPOUND": "CN(C)CCCN(C)C(=O)c1cc(-c2c(Cl)cnc3[nH]ccc23)c[nH]1 [compound 349]", "pKi": "5.30 to 6.30"}
{"COMPOUND": "O=S(=O)(C1CC1)N1CC[C@@H](Nc2c(Cl)cnc3[nH]ccc23)C1 [compound 183]", "pKi": "> 6.30"}
{"COMPOUND": "CCCN(CC1CC1)C(=O)c1cc(-c2c(Cl)cnc3[nH]ccc23)c[nH]1 [compound 334]", "pKi": "> 6.30"}
{"COMPOUND": "CCN(CCC#N)C(=O)c1ccc(-c2ccnc3[nH]ccc23)s1 [compound 314]", "pKi": "> 6.30"}
{"COMPOUND": "CCN(Cc1ccncc1)C(=O)c1cc(-c2c(Cl)cnc3[nH]ccc23)c[nH]1 [compound 353]", "pKi": "> 6.30"}
{"COMPOUND": "O=C(NC1CC1)c1cc(-c2ccnc3[nH]ccc23)c[nH]1 [compound 285]", "pKi": "> 6.30"}
{"COMPOUND": "CCN(CCC#N)C(=O)c1cc(-c2c(Cl)cnc3[nH]ccc23)c[nH]1 [compound 329]", "pKi": "> 6.30"}
{"COMPOUND": "Nc1ncccc1-c1ccnc2[nH]ccc12 [compound 195]", "pKi": "< 5.30"}
{"COMPOUND": "C[C@@H](Nc1nc(-c2ccnc3[nH]ccc23)nc2ccccc12)C(=O)NCC(F)(F)F [compound 200]", "pKi": "5.30 to 6.30"}
{"COMPOUND": "CN(C)CCCN(C)C(=O)c1cc(-c2ccnc3[nH]ccc23)c[nH]1 [compound 365]", "pKi": "5.30 to 6.30"}
{"COMPOUND": "Cc1ccc(-c2ccnc3[nH]ccc23)c(C)c1 [compound 218]", "pKi": "5.30 to 6.30"}
{"COMPOUND": "O=C(CCNc1nc(-c2ccnc3[nH]ccc23)ncc1F)NCC(F)(F)F [compound 193]", "pKi": "5.30 to 6.30"}
{"COMPOUND": "Clc1ccccc1-c1ccnc2[nH]ccc12 [compound 216]", "pKi": "5.30 to 6.30"}
{"COMPOUND": "C#CCN(C)C(=O)c1cc(-c2c(Cl)cnc3[nH]ccc23)c[nH]1 [compound 338]", "pKi": "> 6.30"}
{"COMPOUND": "CCN(Cc1ccccn1)C(=O)c1ccc(-c2ccnc3[nH]ccc23)s1 [compound 318]", "pKi": "> 6.30"}
{"COMPOUND": "O=C(c1csc(-c2ccnc3[nH]ccc23)n1)N1CCCC1 [compound 418]", "pKi": "5.30 to 6.30"}
{"COMPOUND": "Clc1cnc2[nH]ccc2c1-c1cccs1 [compound 135]", "pKi": "> 6.30"}
{"COMPOUND": "CC(C)CN(CC(C)C)C(=O)c1cc(-c2c(Cl)cnc3[nH]ccc23)c[nH]1 [compound 342]", "pKi": "> 6.30"}
{"COMPOUND": "COCCN(CCOC)C(=O)c1cc(-c2c(Cl)cnc3[nH]ccc23)c[nH]1 [compound 339]", "pKi": "> 6.30"}
{"COMPOUND": "O=C(NCCC(F)(F)F)c1cc(-c2ccnc3[nH]ccc23)c[nH]1 [compound 293]", "pKi": "> 6.30"}
{"COMPOUND": "CCCN(CC1CC1)C(=O)c1ccc(-c2ccnc3[nH]ccc23)s1 [compound 319]", "pKi": "> 6.30"}
{"COMPOUND": "O=C(NCC(F)(F)F)c1cc(-c2ccnc3[nH]ccc23)c[nH]1 [compound 259]", "pKi": "> 6.30"}
{"COMPOUND": "O=C(CCNc1nc(-c2ccnc3[nH]ccc23)nc2ccccc12)NCC(F)(F)F [compound 197]", "pKi": "5.30 to 6.30"}
{"COMPOUND": "Cc1cc(C)c(-c2ccnc3[nH]ccc23)c(C)c1 [compound 242]", "pKi": "< 5.30"}
{"COMPOUND": "N#CCCN(CC1CC1)C(=O)c1csc(-c2ccnc3[nH]ccc23)n1 [compound 409]", "pKi": "> 6.30"}
{"COMPOUND": "C=CCN(CC=C)C(=O)c1cc(-c2ccnc3[nH]ccc23)c[nH]1 [compound 298]", "pKi": "> 6.30"}
{"COMPOUND": "Cc1csc(-c2c(Cl)cnc3[nH]ccc23)c1 [compound 144]", "pKi": "> 6.30"}

###

Recorded measurements of Ki, one per entry
target: JAK3 (Homo sapiens, UniProt P52333); assay: JAK3 inhibition assay (33P incorporation into poly(Glu)4Tyr); type: biochemical; settings: enzyme inhibition, Table 5

{"COMPOUND": "c1cc(NCC2COc3ccccc3O2)nc(-c2ccnc3[nH]ccc23)c1 (stereo not shown) [compound 58]", "Ki": "500 to 5000 nM"}
{"COMPOUND": "Clc1cnc2[nH]ccc2c1-c1cccc(NC2CCCC2)n1 [compound 32]", "Ki": "> 5000 nM"}
{"COMPOUND": "CC(C)N(C)c1cccc(-c2ccnc3[nH]ccc23)n1 [compound 61]", "Ki": "500 to 5000 nM"}
{"COMPOUND": "C[C@H](Nc1nc(-c2ccnc3[nH]ccc23)ncc1F)C(=O)NCC(F)(F)F [compound 121]", "Ki": "< 500 nM"}
{"COMPOUND": "O=C(NCC1CCCO1)c1ccc(-c2ccnc3[nH]ccc23)s1 (stereo not shown) [compound 6]", "Ki": "< 500 nM"}
{"COMPOUND": "C[C@H](Nc1ccnc(-c2ccnc3[nH]ccc23)n1)C(=O)NC1CC1 [compound 130]", "Ki": "500 to 5000 nM"}
{"COMPOUND": "CC(=O)Nc1cccc(-c2ccnc3[nH]ccc23)n1 [compound 98]", "Ki": "500 to 5000 nM"}
{"COMPOUND": "O=C(c1ccc(-c2ccnc3[nH]ccc23)s1)N1CCC[C@@H]1CO [compound 11]", "Ki": "< 500 nM"}
{"COMPOUND": "C=C(c1c(Cl)cnc2[nH]ccc12)C1CCCCC1 [compound 69]", "Ki": "< 500 nM"}
{"COMPOUND": "C1=C(c2ccnc3[nH]ccc23)CCC1 [compound 27, 4-Cyclopentenyl-1H-pyrrolo[2,3b]pyridine]", "Ki": "< 500 nM"}
{"COMPOUND": "CC(=O)N1[C@H](C)CN(c2cccc(-c3ccnc4[nH]ccc34)n2)C[C@@H]1C [compound 22]", "Ki": "< 500 nM"}
{"COMPOUND": "Clc1cnc2[nH]ccc2c1NC1CCCC1 [compound 127]", "Ki": "< 500 nM"}
{"COMPOUND": "CN(CCO)c1cccc(-c2ccnc3[nH]ccc23)n1 [compound 35]", "Ki": "500 to 5000 nM"}
{"COMPOUND": "CC(=O)N1CCCN(c2cccc(-c3ccnc4[nH]ccc34)n2)CC1 [compound 18]", "Ki": "500 to 5000 nM"}
{"COMPOUND": "N#CC1(c2cccc(-c3ccnc4[nH]ccc34)n2)CCCC1 [compound 102]", "Ki": "< 500 nM"}
{"COMPOUND": "Nc1cccc(-c2ccnc3[nH]ccc23)c1 [compound 114]", "Ki": "500 to 5000 nM"}
{"COMPOUND": "N#CC1(c2cccc(-c3ccnc4[nH]ccc34)n2)CC1 [compound 101]", "Ki": "< 500 nM"}
{"COMPOUND": "C1=C(c2ccnc3[nH]ccc23)CCCC1 [compound 30, 4-Cyclohexenyl-1H-pyrrolo[2,3b]pyridine]", "Ki": "< 500 nM"}
{"COMPOUND": "COc1ccc(-c2ccnc3[nH]ccc23)cc1OC [compound 1]", "Ki": "500 to 5000 nM"}
